SYSTEM UNDER TEST: recombinant His-tagged human cyclin A2 (sequence 174-432) (human) (UniProt P20248)
ASSAY NOTES: other fluorescence titration
*: point of attachment. X2 = 4‑((4-methylpiperazin-1-yl)methyl)benzoic acid, CN1CCN(Cc2ccc(C(=O)*)cc2)CC1
ATTRIBUTE MEASURED: Kd (µM)
Entry rule: numbers only, all in µM.

Query X2-RLIF-NH2 [SCCP5921: 4-((4-methylpiperazin-1-yl)methyl)benzoic acid ligated to the p21 C-terminus, RLIF] yields Kd of 3.55
